Each record here notes measured inhibition.
experiment: inhibitors of TNFa-induced NFkB p65 translocation, primary screen, imaging, HUVEC, MLSMR starter and 10KST1 sets (AID 438);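 also: compound added about 3h40 before a 20 min TNFalpha stimulation; signal is the nuclear over cytoplasmic p65 intensity ratio per well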
measurementParameters: HUVEC TNFa-induced p65 nuclear translocation; at 2 µM, stronger effect = higher value, 0% TNFa-plus-vehicle, 100% no-TNFa wells
The response must be a number in % with no trailing unit.

Solved entries:
## Input Dear colleague, please send me the reported inhibition for NS(=O)(=O)c1ccc(CCNC(=O)CCC2COc3ccccc3O2)cc1 (configuration not stated) when you can.
## Output -8.3

## Input Dear colleague, please send me the reported inhibition for `O=C(O)c1oc2ccccc2c1-n1cccc1` when you can.
## Output 13.8

## Input Dear colleague, please send me the reported inhibition for `CCC(=O)N1C(=O)CCN(C(C)=O)c2ccccc21` when you can.
## Output 11.3

## Input Dear colleague, please send me the reported inhibition for `COc1ccc(-n2nnnc2-c2cccc(OC)c2)cc1` when you can.
## Output -45.9

## Input Dear colleague, please send me the reported inhibition for `COc1ccc(C)cc1S(=O)(=O)N(C)CC(=O)Nc1ccc2c(c1)OCCO2` when you can.
## Output -8.1

Next:
## Input Dear colleague, please send me the reported inhibition for COc1ccc(C(c2sc3nc(C)nn3c2O)N2CCCCC2)cc1 (configuration not stated) when you can.
## Output -6.4

## Input Dear colleague, please send me the reported inhibition for `O=C(Nc1ccccc1)c1cccnc1N1CCOCC1` when you can.
## Output -11.1

## Input Dear colleague, please send me the reported inhibition for Cc1cc(NC(=O)CCC(=O)N(CC2CCCO2)C(C(=O)NC2CCCC2)c2ccccc2C)no1 (configuration not stated) when you can.
## Output 0

## Input Dear colleague, please send me the reported inhibition for CN(C)c1ccc(/C=C/C(O)=C2/C(=O)N(C)C3(C)CC2c2ccccc2O3)cc1 (configuration not stated) when you can.
## Output -0.4

## Input Dear colleague, please send me the reported inhibition for `CCn1c(SCC(N)=O)nnc1-c1ccc(S(=O)(=O)N2CCN(C)CC2)cc1` when you can.
## Output -10.2

## Input Dear colleague, please send me the reported inhibition for CC1=C(C(=O)Nc2ccccc2C)C(c2ccc(C)o2)N2C(=O)CSC2=N1 (configuration not stated) when you can.
## Output -16.7

## Input Dear colleague, please send me the reported inhibition for `COc1ccc(-c2nc(SC)n(S(=O)(=O)c3ccccc3)n2)cc1` when you can.
## Output -1.9

## Input Dear colleague, please send me the reported inhibition for CSc1cccc(NC(=O)C2CCCN2S(=O)(=O)c2ccc3c(c2)CCC(=O)N3)c1 (configuration not stated) when you can.
## Output -6.9

## Input Dear colleague, please send me the reported inhibition for `O=C(CSCc1cccc(F)c1)N1CCN(c2ccccc2)CC1` when you can.
## Output -14.3

## Input Dear colleague, please send me the reported inhibition for CC1Cc2ccccc2N1Cc1cc(=O)n2ccsc2n1 (configuration not stated) when you can.
## Output -5.7

Just for reference, PubChem BioAssay is where these values come from.
